biological target: horseradish peroxidase (HRP) tagged delF508-CFTR (Homo sapiens, UniProt P13569, DEL508-508); construct: expressed in transfected cells; test: Measurement of delF508-CFTR-HRP surface expression in CFBE41o- cells; assay type: cell-based; conditions: delF508-CFTR-HRP surface expression, CFBE41o- cells; read-out: DelF508-CFTR-HRP Amax %;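 for DelF508-CFTR-HRP Amax %: percent efficacy relative to reference corrector lumacaftor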
Sequence (P13569 with tags, fused parts or gaps DEL508-508): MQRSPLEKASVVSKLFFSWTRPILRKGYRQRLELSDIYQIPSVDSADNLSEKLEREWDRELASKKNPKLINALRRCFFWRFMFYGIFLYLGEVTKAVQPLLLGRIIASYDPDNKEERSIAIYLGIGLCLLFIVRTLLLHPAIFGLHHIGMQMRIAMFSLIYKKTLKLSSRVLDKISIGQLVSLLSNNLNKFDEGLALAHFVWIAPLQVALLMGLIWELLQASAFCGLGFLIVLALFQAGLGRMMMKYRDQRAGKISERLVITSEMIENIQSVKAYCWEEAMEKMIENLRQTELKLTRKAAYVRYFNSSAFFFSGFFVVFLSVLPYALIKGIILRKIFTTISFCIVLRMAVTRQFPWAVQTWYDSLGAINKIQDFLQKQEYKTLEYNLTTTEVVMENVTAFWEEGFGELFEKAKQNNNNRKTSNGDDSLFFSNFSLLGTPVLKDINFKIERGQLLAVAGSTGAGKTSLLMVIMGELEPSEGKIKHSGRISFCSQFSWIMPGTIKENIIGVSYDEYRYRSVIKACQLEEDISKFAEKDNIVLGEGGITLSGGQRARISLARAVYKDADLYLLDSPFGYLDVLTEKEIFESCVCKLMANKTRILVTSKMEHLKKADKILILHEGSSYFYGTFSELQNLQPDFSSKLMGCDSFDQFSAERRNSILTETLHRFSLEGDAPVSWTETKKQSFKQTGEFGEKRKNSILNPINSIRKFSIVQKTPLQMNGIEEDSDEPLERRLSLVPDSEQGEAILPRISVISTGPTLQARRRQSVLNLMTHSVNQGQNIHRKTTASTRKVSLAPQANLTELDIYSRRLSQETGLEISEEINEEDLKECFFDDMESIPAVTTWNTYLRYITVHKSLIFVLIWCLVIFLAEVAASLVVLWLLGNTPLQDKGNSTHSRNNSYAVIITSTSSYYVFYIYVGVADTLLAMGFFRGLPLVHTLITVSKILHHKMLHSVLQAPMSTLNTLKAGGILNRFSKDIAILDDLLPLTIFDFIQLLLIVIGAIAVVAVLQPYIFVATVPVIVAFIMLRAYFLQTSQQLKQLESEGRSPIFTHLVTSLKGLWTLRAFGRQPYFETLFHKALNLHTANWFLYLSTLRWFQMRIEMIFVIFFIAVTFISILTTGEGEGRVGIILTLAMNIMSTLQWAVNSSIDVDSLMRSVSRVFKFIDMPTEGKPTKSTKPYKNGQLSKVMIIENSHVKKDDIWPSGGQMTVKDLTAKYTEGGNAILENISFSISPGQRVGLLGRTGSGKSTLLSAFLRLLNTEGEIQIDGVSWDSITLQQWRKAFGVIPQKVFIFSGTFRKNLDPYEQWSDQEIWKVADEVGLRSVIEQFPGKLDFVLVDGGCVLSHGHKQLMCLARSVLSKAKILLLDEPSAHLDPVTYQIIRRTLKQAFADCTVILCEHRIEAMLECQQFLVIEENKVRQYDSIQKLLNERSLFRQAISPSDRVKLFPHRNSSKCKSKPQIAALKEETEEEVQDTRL
Structures can show the parent of a compound that is named as a salt.
Mark label 1 only for Emax values smaller than 200%; exact matches and larger values are label 0.

Problem: Strictly below 200% in Emax? Cc1ccccc1-c1nc(NS(=O)(=O)c2cccc(N3C4CCC3CC(C(=O)O)C4)n2)ccc1C(F)(F)F (stereo not shown)
Solution: label 0

Problem: Strictly below 200% in Emax? `COc1cc(NS(=O)(=O)c2cccc(N3CC(C)(O)C3)n2)nc(-c2c(C)cccc2C)c1`
Solution: label 1

Problem: Strictly below 200% in Emax? CO[C@H]1CNCC[C@H]1Nc1cccc(S(=O)(=O)Nc2ccc(C(F)(F)F)c(-c3ccccc3C)n2)n1 (racemic) [Example 115, Hydrochloride]
Solution: label 1

Problem: Strictly below 200% in Emax? `Cc1cccc(C)c1-c1nc(NS(=O)(=O)c2cccc(N3CCN(C(=O)OC(C)(C)C)CC3=O)n2)ccc1Cl`
Solution: label 0

Problem: Strictly below 200% in Emax? `Cc1cccc(C)c1-c1nc(NS(=O)(=O)c2cccc(O[C@H]3CC[C@H](C(=O)O)CC3)n2)ccc1Cl`
Solution: label 1

Problem: Strictly below 200% in Emax? `Cc1cccc(C)c1-c1nc(NS(=O)(=O)c2ccc(Br)c(N)n2)ccc1Cl`
Solution: label 1

Problem: Strictly below 200% in Emax? `Cc1cccc(C)c1-c1nc(NS(=O)(=O)c2cccc(N3CCC(C)(C(=O)O)CC3)n2)ccc1C(F)(F)F`
Solution: label 0

---

Answer each item with its documented MTECC24 CFHBEC- Amax %.
Target: delF508-CFTR (Homo sapiens, UniProt P13569, DEL508-508)
Construct: functional activity of the CFTR channel (Chloride ion transport) in patient derived primary human bronchial epithelial cells; host or cells: patient-derived primary human bronchial epithelial cells (delF508-CFTR)
Experiment: Measurement of delF508-CFTR functional activity in primary human bronchial epithelial cells (HBECs) using Multi-Transepithelial Clamp Circuit (MTECC-24) assay
Assay type: cell-based
Details: primary CF HBECs; test compound added 24h before assay plus potentiator; relative to reference combination (2 μM corrector + 0.5 μM potentiator)
Method: [formula] Measurement of delF508-CFTR Functional Activity in Primary Human Bronchial Epithelial Cells (HBECs) Using Multi-Transepithelial Clamp Circuit (MTECC-24) Assay […] Modulators were added sequentially as follows while the MTECC24 instrument recorded the equivalent short circuit current (Ieq): […]
Counter-ions that a name gives are not always drawn.
Kindly answer with a numeric value in %, unit omitted.

Problem: Write down MTECC24 CFHBEC- Amax % measured for item `Cc1c(F)cccc1-c1nc(NS(=O)(=O)c2cccc(N3CC(O)C3)n2)ccc1Cl`
Solution: 72.3

Problem: Write down MTECC24 CFHBEC- Amax % measured for item `Cc1c(C#N)cccc1-c1nc(NS(=O)(=O)c2cccc(N3CC(C)(O)C3)n2)ccc1C(F)(F)F`
Solution: 60.7

Problem: Write down MTECC24 CFHBEC- Amax % measured for item Cc1ccccc1-c1nc(NS(=O)(=O)c2cccc(N3CCNC[C@H]3C)n2)ccc1C(F)(F)F [Example 171, Hydrochloride]
Solution: 66.2

Problem: Write down MTECC24 CFHBEC- Amax % measured for item Cc1ccccc1-c1nc(NS(=O)(=O)c2cccc(O[C@@H]3COC[C@]3(C)O)n2)ccc1C(F)(F)F (single isomer, unassigned)
Solution: 81.9

Problem: Write down MTECC24 CFHBEC- Amax % measured for item COc1ccc(Cl)c(-c2nc(NS(=O)(=O)c3cccc(N4CCNCC4)n3)ccc2Cl)c1 [Example 158, hydrochloride]
Solution: 76.6

Problem: Write down MTECC24 CFHBEC- Amax % measured for item Cc1ccc(F)cc1-c1nc(NS(=O)(=O)c2cccc(N3CCN[C@@H](C)C3)n2)ccc1C(F)(F)F [Example 177, Hydrochloride]
Solution: 79.7

Problem: Write down MTECC24 CFHBEC- Amax % measured for item Cc1ccccc1-c1nc(NS(=O)(=O)c2cccc(N3CCNC[C@@H]3C)n2)ccc1C(F)(F)F [Example 170, Hydrochloride]
Solution: 63.3

Problem: Write down MTECC24 CFHBEC- Amax % measured for item Cc1ccccc1-c1nc(NS(=O)(=O)c2cccc(N3CCN(C(=O)CN)CC3)n2)ccc1C(F)(F)F [Example 191, hydrochloride]
Solution: 64.4

Problem: Write down MTECC24 CFHBEC- Amax % measured for item `Cc1ccccc1-c1nc(NS(=O)(=O)c2cccc(N3CCN(C4COC4)CC3)n2)ccc1C(F)(F)F`
Solution: 78.8

Problem: Write down MTECC24 CFHBEC- Amax % measured for item `Nc1cccc(S(=O)(=O)Nc2ccc(C(F)(F)F)c(-c3ccccc3Cl)n2)n1`
Solution: 69.5

Problem: Write down MTECC24 CFHBEC- Amax % measured for item Cc1ccc(F)cc1-c1nc(NS(=O)(=O)c2cccc(N3CCN4C[C@@H](F)CC4[C@@H]3C)n2)ccc1Cl (some centres unmarked)
Solution: 95.3

Problem: Write down MTECC24 CFHBEC- Amax % measured for item `CCc1ccccc1-c1nc(NS(=O)(=O)c2cccc(N3CCC[C@H](C(=O)O)C3)n2)ccc1C(F)(F)F`
Solution: 105.9

Problem: Write down MTECC24 CFHBEC- Amax % measured for item Cc1cccc(C)c1-c1nc(NS(=O)(=O)c2cccc(N3CCN[C@@H](CO)C3)n2)ccc1C(F)(F)F [Example 172, Hydrochloride]
Solution: 77.0

Problem: Write down MTECC24 CFHBEC- Amax % measured for item `Cc1c(F)cccc1-c1nc(NS(=O)(=O)c2cccc(N3CCC[C@@H](C(=O)O)C3)n2)ccc1C(F)(F)F`
Solution: 57.9

---

molecular target: horseradish peroxidase (HRP) tagged delF508-CFTR (Homo sapiens, UniProt P13569, DEL508-508); construct: expressed in transfected cells; test: Measurement of delF508-CFTR-HRP surface expression in CFBE41o- cells; type: cell-based; conditions: delF508-CFTR-HRP surface expression, CFBE41o- cells; read-out: DelF508-CFTR-HRP EC50
Where a name gives a salt, the structure may show the parent alone.
Answer each item with its documented EC50.
Kindly answer with a numeric value in nM, unit omitted.

Problem: Write down EC50 measured for item `O=S(=O)(Nc1ccc(C(F)(F)F)c(-c2ccccc2C(F)(F)F)n1)c1cccc(N2CC(O)C2)n1`
Solution: 1380

Problem: Write down EC50 measured for item `Cc1cccc(C)c1-c1cccc(NS(=O)(=O)c2cccc(N)n2)n1`
Solution: 2420

Problem: Write down EC50 measured for item `CCc1ccccc1-c1nc(NS(=O)(=O)c2cccc(N3CCC[C@@H](C(=O)O)C3)n2)ccc1C(F)(F)F`
Solution: 1720

Problem: Write down EC50 measured for item Cc1ccccc1-c1nc(NS(=O)(=O)c2cccc(N[C@H]3COCC[C@H]3O)n2)ccc1C(F)(F)F (single isomer, unassigned)
Solution: 1880

Problem: Write down EC50 measured for item `CC1(C(=O)O)CCN(c2cccc(S(=O)(=O)Nc3ccc(C(F)(F)F)c(-c4ccccc4Cl)n3)n2)CC1`
Solution: 3460

Problem: Write down EC50 measured for item `Cc1ccc(F)cc1-c1nc(NS(=O)(=O)c2ccnc(N3CCNCC3)c2)ccc1C(F)(F)F`
Solution: 3810

Problem: Write down EC50 measured for item `O=S(=O)(Nc1ccc(Cl)c(-c2ccccc2C(F)(F)F)n1)c1cccc(N[C@@H]2COC[C@H]2O)n1`
Solution: 2180

Problem: Write down EC50 measured for item `C[C@]1(C(=O)O)CCCN(c2cccc(S(=O)(=O)Nc3ccc(C(F)(F)F)c(-c4ccccc4C4CCC4)n3)n2)C1`
Solution: 273

Problem: Write down EC50 measured for item Cc1ccccc1-c1nc(NS(=O)(=O)c2cccc(N3CCCC(C)(C(=O)O)C3)n2)ccc1C(F)(F)F (stereo not drawn)
Solution: 2250

Problem: Write down EC50 measured for item `Nc1cccc(S(=O)(=O)Nc2ccc(Cl)c(-c3c(Cl)cccc3C(F)(F)F)n2)n1`
Solution: 1380

Problem: Write down EC50 measured for item `Cc1c(-c2nc(NS(=O)(=O)c3cccc(N)n3)ccc2Cl)cccc1C(F)(F)F`
Solution: 2520

Problem: Write down EC50 measured for item `Cc1ccc(C#N)cc1-c1nc(NS(=O)(=O)c2cccc(N)n2)ccc1C(F)(F)F`
Solution: 4110

Problem: Write down EC50 measured for item `COc1ccc(Cl)c(-c2nc(NS(=O)(=O)c3cccc(N4CCC(C)(C(=O)O)CC4)n3)ccc2C(F)(F)F)c1`
Solution: 2890

Problem: Write down EC50 measured for item `Cc1cc(C#N)ccc1-c1nc(NS(=O)(=O)c2cccc(N)n2)ccc1Cl`
Solution: 2200

Problem: Write down EC50 measured for item Cc1ccc(F)cc1-c1nc(NS(=O)(=O)c2cccc(N3CCN[C@@H](C)C3)n2)ccc1C(F)(F)F [Example 177, Hydrochloride]
Solution: 2810
